Reference for the values: the RNAGym collection of RNA variant scans (doi:10.1021/acssynbio.7b00057)

B1: Pistol ribozyme (parent)
chain: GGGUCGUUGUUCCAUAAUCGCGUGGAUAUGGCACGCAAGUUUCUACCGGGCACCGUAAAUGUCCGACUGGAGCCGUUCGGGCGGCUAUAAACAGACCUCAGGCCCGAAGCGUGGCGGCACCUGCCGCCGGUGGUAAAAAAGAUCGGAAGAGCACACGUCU

Variants of: B1
Test: aptazyme ON/OFF ratio, guanine; higher = stronger switching; co-transcriptional cleavage with and without guanine
Examples of variants with documented aptazyme ON/OFF ratio follow.
I only need the number, thanks.

Worked set:
Summary for this variant, U7A U10A U11A C12U : aptazyme ON/OFF ratio is 1.2

Looking up U7A U8G G9U U10C U11A C12G C13U , I found its aptazyme ON/OFF ratio recorded as 1.37

So for U7C U8C G9A U10A C12G C13G , the logged aptazyme ON/OFF ratio turned out to be 1.27

Further cases:
Form: variant = U7G U8G G9U U11G C12G C13U ; aptazyme ON/OFF ratio = 1.22

The measured aptazyme ON/OFF ratio associated with U7A G9U U10A C12G C13A reads 1.25

Briefly, aptazyme ON/OFF ratio measured for U7G U8C U11C C13A : 1.3
